pIC50 values for the compounds below.
system_under_test: GST fusion human ERK2 protein (Homo sapiens)
Construct: purchased Carna Biosciences, Inc; host or cells: E. coli expression system
Sequence (P28482 whole entry, the tested form may be a part): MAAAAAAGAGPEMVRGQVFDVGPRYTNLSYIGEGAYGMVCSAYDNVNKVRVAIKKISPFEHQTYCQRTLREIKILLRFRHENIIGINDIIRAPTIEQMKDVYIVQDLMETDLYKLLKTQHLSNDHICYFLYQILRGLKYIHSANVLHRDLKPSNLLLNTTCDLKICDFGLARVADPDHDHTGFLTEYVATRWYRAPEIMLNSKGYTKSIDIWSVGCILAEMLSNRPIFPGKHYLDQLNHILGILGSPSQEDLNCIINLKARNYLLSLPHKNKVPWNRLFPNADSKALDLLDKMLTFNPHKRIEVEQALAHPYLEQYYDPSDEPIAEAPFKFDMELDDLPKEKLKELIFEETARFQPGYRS
test_protocol: ERK2 enzyme assay (2)
Type: biochemical
assay_context: ERK2 enzyme assay (2); read-out: ERK2 enzyme inhibitory activity (2)
pIC50: −log10 of the molar value.

Examples with their reported pIC50 follow.
{"chemical_smiles": "Cn1cc(-c2cnc3ccc(Nc4cc(C5CCCC5)cnn4)nc3c2)c(CF)n1", "pIC50": "> 6.00"}
{"chemical_smiles": "Cc1cncc(-c2cnc3ccc(Nc4cc(C(C)C)cnn4)nc3c2)c1", "pIC50": "> 6.00"}
{"chemical_smiles": "CC(C)c1cnnc(Nc2ccc3ncc(NC(=O)COCc4ccccc4)cc3n2)c1", "pIC50": "5.00 to 6.00"}
{"chemical_smiles": "CC(C)c1cnnc(Nc2ccc3ncc(-c4cnn(CC5CCOCC5)c4)cc3n2)c1", "pIC50": "> 6.00"}
{"chemical_smiles": "CC(C)c1cnnc(Nc2ccc3ncc(-c4cc(N)ncn4)cc3n2)c1", "pIC50": "> 6.00"}

Given item `CCCc1cnnc(Nc2ccc3ncc(-c4cnn(CCCN5CCCC5)c4)cc3n2)c1` , the value recorded as its pIC50 is > 6.00

Given item `Cn1cc(-c2cc3nc(Nc4nnc(C5CCCC5)s4)ccc3nc2Cl)cn1` , the value recorded as its pIC50 is 5.00 to 6.00

Given item `FC1(F)CCN(CCCn2cc(-c3cnc4ccc(Nc5nnc(C6CCCC6)s5)nc4c3)cn2)C1` , the value recorded as its pIC50 is > 6.00

---

system_under_test: human PI3Kα protein (Homo sapiens, UniProt P42336)
Construct: purchased Carna Biosciences, Inc; host or cells: baculovirus expression system
Sequence (P42336 whole entry): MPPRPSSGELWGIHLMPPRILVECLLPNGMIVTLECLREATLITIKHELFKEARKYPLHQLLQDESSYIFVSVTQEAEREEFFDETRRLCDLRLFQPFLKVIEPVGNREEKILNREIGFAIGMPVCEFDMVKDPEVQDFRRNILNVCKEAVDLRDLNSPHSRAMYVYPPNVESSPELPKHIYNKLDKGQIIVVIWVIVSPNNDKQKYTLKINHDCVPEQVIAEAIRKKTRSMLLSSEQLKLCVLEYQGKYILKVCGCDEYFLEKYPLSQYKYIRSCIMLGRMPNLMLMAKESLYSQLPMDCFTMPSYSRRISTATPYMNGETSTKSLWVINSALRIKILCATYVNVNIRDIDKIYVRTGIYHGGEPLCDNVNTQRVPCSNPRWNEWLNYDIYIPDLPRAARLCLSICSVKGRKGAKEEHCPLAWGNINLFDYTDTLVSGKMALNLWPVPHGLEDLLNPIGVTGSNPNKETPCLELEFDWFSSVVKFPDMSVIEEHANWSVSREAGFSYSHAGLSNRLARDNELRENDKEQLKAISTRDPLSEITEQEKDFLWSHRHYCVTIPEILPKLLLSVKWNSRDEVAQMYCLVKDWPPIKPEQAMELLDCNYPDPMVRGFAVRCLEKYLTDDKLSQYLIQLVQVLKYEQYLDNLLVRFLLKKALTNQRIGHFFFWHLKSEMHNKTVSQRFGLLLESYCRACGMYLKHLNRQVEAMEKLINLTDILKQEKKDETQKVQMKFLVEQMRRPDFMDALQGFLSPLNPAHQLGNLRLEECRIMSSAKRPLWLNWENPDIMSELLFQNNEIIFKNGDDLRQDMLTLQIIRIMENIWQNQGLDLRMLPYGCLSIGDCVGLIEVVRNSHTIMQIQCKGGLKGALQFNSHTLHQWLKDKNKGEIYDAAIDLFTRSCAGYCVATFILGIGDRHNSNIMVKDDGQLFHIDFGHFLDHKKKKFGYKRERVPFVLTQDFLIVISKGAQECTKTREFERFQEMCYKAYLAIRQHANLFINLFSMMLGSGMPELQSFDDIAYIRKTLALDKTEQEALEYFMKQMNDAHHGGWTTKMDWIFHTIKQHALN
Sequence (P27986 whole entry partner): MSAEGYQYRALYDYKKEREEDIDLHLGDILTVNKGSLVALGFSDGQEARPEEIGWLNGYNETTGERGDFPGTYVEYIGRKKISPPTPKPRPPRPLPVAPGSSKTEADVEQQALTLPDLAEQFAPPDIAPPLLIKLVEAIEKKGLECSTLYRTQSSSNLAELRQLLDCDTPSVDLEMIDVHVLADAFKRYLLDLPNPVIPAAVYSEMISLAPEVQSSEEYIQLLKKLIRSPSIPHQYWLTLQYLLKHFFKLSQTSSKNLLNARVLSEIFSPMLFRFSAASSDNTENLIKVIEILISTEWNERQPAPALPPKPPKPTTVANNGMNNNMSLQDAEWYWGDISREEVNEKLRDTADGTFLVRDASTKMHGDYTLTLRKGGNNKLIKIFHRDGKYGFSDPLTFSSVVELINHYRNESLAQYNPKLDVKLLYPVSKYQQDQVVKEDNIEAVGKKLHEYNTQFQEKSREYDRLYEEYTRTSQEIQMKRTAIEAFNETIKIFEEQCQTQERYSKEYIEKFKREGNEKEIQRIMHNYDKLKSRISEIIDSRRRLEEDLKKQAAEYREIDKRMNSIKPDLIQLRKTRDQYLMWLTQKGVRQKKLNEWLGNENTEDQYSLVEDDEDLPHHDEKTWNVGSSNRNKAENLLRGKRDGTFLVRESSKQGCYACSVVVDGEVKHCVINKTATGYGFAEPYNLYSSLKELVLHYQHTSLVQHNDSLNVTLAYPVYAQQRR
test_protocol: PI3Kα enzyme assay (ADP-Glo)
Type: biochemical
assay_context: read-out: PI3Kα enzyme inhibitory activity
IC50 values for the compounds below.

{"compound": "COc1c(-c2cnn(C)c2)cnc2ccc(Nc3cc(C(C)C)cnn3)nc12 [Example 0914]", "IC50": "< 1 µM"}

# Cn1cc(-c2cnc3ccc(Nc4nccn4C)nc3c2)cn1 [Example 0516] with human PI3Kα protein (Homo sapiens, UniProt P42336): IC50 is 10 to 50 µM

# CC(C)c1cnnc(Nc2ccc3ncc(-c4cn(C)nc4NC4CCCCCC4)cc3n2)c1 [Example 0949] with human PI3Kα protein (Homo sapiens, UniProt P42336): IC50 is 1 to 10 µM

# CC(C)c1cnnc(Nc2ccc3ncc(N4CC(OCC(F)F)C4)cc3n2)c1 [Example 0868] with human PI3Kα protein (Homo sapiens, UniProt P42336): IC50 is 1 to 10 µM

# CC(C)c1cnnc(Nc2ccc3ncc(-c4cn(C)nc4CO)cc3n2)c1 [Example 0394] with human PI3Kα protein (Homo sapiens, UniProt P42336): IC50 is < 1 µM

---

IC50 values for the compounds below.
system_under_test: human PI3Kα protein (Homo sapiens, UniProt P42336)
Construct: purchased Carna Biosciences, Inc; host or cells: baculovirus expression system
test_protocol: PI3Kα enzyme assay (ADP-Glo)
Assay type: biochemical
assay_context: read-out: PI3Kα enzyme inhibitory activity

Examples with their reported IC50 follow.
{"compound": "COCCN(CCCn1cc(-c2cnc3ccc(Nc4cc(C(C)C)cnn4)nc3c2)cn1)CCOC", "IC50": "< 1000 nM"}
{"compound": "CC(C)c1cnnc(Nc2ccc3ncc(-c4cnn(CCCN5CCN(C(=O)N(C)C)CC5)c4)cc3n2)c1", "IC50": "< 1000 nM"}

Given item `CC(C)c1cnnc(Nc2ccc3ncc(-c4cnn(CCOC5CN(S(C)(=O)=O)C5)c4)cc3n2)c1` , the value recorded as its IC50 is < 1000 nM

Given item `Cc1nc2ccc(Nc3cc(C(C)C)cnn3)nc2cc1-c1cn(C)nc1C` , the value recorded as its IC50 is 1000 to 10000 nM

Given item `CC(C)c1cnnc(Nc2ccc3ncc(-c4cnn(CCCN5CC(NC(=O)C(F)(F)F)C5)c4)cc3n2)c1` , the value recorded as its IC50 is < 1000 nM

Given item `Cc1ccncc1-c1nn(C)cc1-c1cnc2ccc(Nc3cc(C(C)C)cnn3)nc2c1` , the value recorded as its IC50 is < 1000 nM

Given item `CC(C)c1cnnc(Nc2ccc3ncc(-c4cnn(Cc5cccc(N)c5)c4)cc3n2)c1` , the value recorded as its IC50 is < 1000 nM

Given item `C=Cn1cc(-c2cnc3ccc(Nc4cc(C(C)C)cnn4)nc3c2)cn1` , the value recorded as its IC50 is < 1000 nM

Given item `CC(C)c1cnnc(Nc2ccc3ncc(-c4cn(C)nc4-c4ccc(OCCN(C)C)cc4)cc3n2)c1` , the value recorded as its IC50 is < 1000 nM

Given item `Cc1cnnc(Nc2ccc3ncc(-c4cn(C)nc4-c4cccnc4)cc3n2)c1` , the value recorded as its IC50 is < 1000 nM

Given item `CC(C)c1cnnc(Nc2ccc3ncc(-c4cnn(CCCN5CCOCC5(C)C)c4)cc3n2)c1` , the value recorded as its IC50 is < 1000 nM

Given item `CC(C)c1cnnc(Nc2ccc3ncc(N4CCOC[C@H]4C)cc3n2)c1` , the value recorded as its IC50 is < 1000 nM

Given item `Cc1nn(C)cc1-c1cnc2ccc(Nc3cn(C(C)C)cn3)nc2c1` , the value recorded as its IC50 is < 1000 nM
